Known IC50 of a selection of compounds
Biological target: gluthathione reductase (GR) (Homo sapiens)
Sequence (P00390 44-522): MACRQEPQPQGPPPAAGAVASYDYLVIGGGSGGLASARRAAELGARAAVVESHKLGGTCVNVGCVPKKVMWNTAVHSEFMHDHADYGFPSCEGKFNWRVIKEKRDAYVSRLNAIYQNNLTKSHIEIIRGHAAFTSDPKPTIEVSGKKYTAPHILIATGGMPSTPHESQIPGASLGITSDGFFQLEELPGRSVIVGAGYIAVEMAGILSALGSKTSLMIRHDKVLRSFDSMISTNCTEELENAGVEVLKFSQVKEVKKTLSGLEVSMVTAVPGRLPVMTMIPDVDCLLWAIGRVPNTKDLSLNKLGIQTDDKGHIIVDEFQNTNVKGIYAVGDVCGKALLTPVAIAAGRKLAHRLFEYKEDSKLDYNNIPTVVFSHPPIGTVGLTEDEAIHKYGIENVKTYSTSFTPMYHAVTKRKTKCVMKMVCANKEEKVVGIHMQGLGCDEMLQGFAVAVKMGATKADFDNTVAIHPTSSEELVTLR
Test: Inhibition of recombinant GR (GSSG assay)
Assay type: biochemical
Conditions: Biological Example 1; 2 nM GR, 15 minutes incubation
Method: Small molecule inhibition of recombinant thioredoxin reductase 1 (TrxR1) and gluthathione reductase (GR) was examined in 96-well plate format. […] Percent activity was determined using DMSO vehicle and no TrxR1 (blank) controls. […] Percent activity was determined using DMSO vehicle and no GR (blank) controls.
Where a name gives a salt, the structure may show the parent alone.

State its IC50: COc1ccc([N+](=O)[O-])c(S(=O)(=O)c2ccc(Cl)cc2)n1 [Example 1, Hydrochloride] > 100 µM

State its IC50: O=[N+]([O-])c1cccnc1S(=O)(=O)c1ccccc1 [Example 2, Trifluoroacetate] > 100 µM

# input for lookup
State its IC50: Cc1ccc(S(=O)(=O)c2ncccc2[N+](=O)[O-])cc1 [Example 3, 3-Nitro-2-tosylpyridine Hydrochloride] > 100 µM
